# credit: patent US20250248970A1

EXPERIMENTAL_TARGET: ERα (Homo sapiens)
Construct: host or cells: MCF7
Sequence (P03372 1-595): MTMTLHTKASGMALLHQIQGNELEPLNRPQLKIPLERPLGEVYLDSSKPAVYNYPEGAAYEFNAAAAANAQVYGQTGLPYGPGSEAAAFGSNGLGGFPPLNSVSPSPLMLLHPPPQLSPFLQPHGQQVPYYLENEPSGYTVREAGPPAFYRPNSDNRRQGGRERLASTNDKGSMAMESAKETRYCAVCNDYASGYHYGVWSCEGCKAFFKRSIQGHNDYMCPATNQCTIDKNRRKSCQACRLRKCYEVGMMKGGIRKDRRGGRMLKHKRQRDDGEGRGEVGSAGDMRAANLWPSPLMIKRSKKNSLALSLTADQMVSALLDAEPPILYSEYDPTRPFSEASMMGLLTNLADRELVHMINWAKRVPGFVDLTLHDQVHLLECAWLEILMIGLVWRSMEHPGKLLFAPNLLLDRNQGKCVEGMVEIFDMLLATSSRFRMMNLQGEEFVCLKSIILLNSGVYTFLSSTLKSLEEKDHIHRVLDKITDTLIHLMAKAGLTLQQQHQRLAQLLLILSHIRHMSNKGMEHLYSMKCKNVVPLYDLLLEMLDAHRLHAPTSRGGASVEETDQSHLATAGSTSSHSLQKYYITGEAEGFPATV
METHOD_SUMMARY: Estrogen receptor degradation activity (breast cancer cell ERα in cell western assay)
Format: cell-based
MEASUREMENT_PARAMETERS: MCF7 cells, 0.3 μM, 4 hours, % of ERα levels decrease relative to fulvestrant
READOUT: % Degradation At 0.3 μM (%)
Response body: numeric value in %, unit text excluded.

stdin: Hi! What's the reported % Degradation At 0.3 μM for O=C(O)c1ccc2c(c1)CCCC(c1ccc(Cl)cc1Cl)=C2c1ccc(C[C@@H]2CCN(CCCF)C2)cc1 [Compound 24] on ERα (Homo sapiens)?
stdout: 46

stdin: Hi! What's the reported % Degradation At 0.3 μM for Cl.O=C(O)c1ccc2c(c1)CCCC(c1ccc(F)cc1F)=C2c1ccc(CC2CCN(CCCF)C2)cc1 (single isomer, unassigned; isomer 1) [Compound 19] on ERα (Homo sapiens)?
stdout: 86

stdin: Hi! What's the reported % Degradation At 0.3 μM for Cc1cccc(C2=C(c3ccc(CC4CCN(CCC(F)F)C4)cc3)c3ccc(C(=O)O)cc3CCC2)c1C(F)(F)F.Cl (single isomer, unassigned; isomer 1) [Compound 34] on ERα (Homo sapiens)?
stdout: 85

stdin: Hi! What's the reported % Degradation At 0.3 μM for Cc1cc(F)ccc1C1=C(c2ccc(CC3CCN(CCCF)C3)cc2)c2ccc(C(=O)O)cc2CCC1 (single isomer, unassigned; isomer 1) [Compound 17] on ERα (Homo sapiens)?
stdout: 84

stdin: Hi! What's the reported % Degradation At 0.3 μM for O=C(O)C(F)(F)F.O=C(O)c1ccc2c(c1)CCCC(c1ccc(Cl)cc1Cl)=C2c1ccc(CC2(F)CCN(CCCF)C2)cc1 (single isomer, unassigned; isomer 1) [Compound 23] on ERα (Homo sapiens)?
stdout: 69

stdin: Hi! What's the reported % Degradation At 0.3 μM for O=C(O)c1ccc2c(c1)CCCC(c1ccc(Cl)cc1Cl)=C2c1ccc(C[C@H]2CCN(CCCF)C2)cc1 [Compound 1] on ERα (Homo sapiens)?
stdout: 85

stdin: Hi! What's the reported % Degradation At 0.3 μM for CC1CCc2cc(C(=O)O)ccc2C(c2ccc(CC3CCN(CCCF)C3)cc2)=C1c1ccc(C(F)(F)F)cc1 (single isomer, unassigned; isomer 2) [Compound 42] on ERα (Homo sapiens)?
stdout: 90

stdin: Hi! What's the reported % Degradation At 0.3 μM for Cc1cccc(C2=C(c3ccc(CC4CCN(CCCF)C4)cc3)c3ccc(C(=O)O)cc3CCC2)c1C(F)(F)F (single isomer, unassigned; isomer 1) [Compound 30] on ERα (Homo sapiens)?
stdout: 85
